Data origin, for the record: PubChem BioAssay (NCI)

Tested on: CAKI-1 renal
protocol description: NCI tumour cell line growth inhibition, 48 h

>  <molecule>
O=C(CO[N+](=O)[O-])OCC(=O)c1ccccc1

>  <TGI>
> 100 µM

$$$$
>  <molecule>
O=C(c1ccccc1)n1c2ccc(Br)cc2c2nc3ccccc3nc21

>  <TGI>
> 100 µM

$$$$
>  <molecule>
Cn1c(=O)c(C#N)c(O)c2cc3ccccc3nc21

>  <TGI>
> 100 µM

$$$$
>  <molecule>
C[C@@H](c1ccccc1)N(CC#N)[C@H]1CCC[C@]1(O)/C=C/c1ccc2c(c1)OCO2

>  <TGI>
> 25 µM

$$$$
>  <molecule>
CC(C)=C[C@@H]1C[C@H](C)[C@H]2CC[C@H](C)[C@H]3C(=O)C(O)=C(C)C(=O)[C@]123

>  <TGI>
> 100 µM

$$$$
>  <molecule>
O=C(CCc1ccccc1)NCCc1ccc(O)c(O)c1

>  <TGI>
29.4 µM

$$$$
>  <molecule>
COC(=O)C1=C(C)C(=O)C2(CCCCCC2C(=O)OC)C1 (stereo not drawn)

>  <TGI>
> 100 µM

$$$$
>  <molecule>
CCOC(=O)NC/C=C/CO

>  <TGI>
> 100 µM

$$$$
>  <molecule>
CC(C)(C)OC(=O)NCCCCC1NC(=O)[C@@H]2Cc3c([nH]c4ccccc34)C(c3ccccc3)N2C1=O (stereo partly drawn)

>  <TGI>
> 100 µM

$$$$
>  <molecule>
CC(C)c1nc(Cl)c(Cl)c(Cl)n1

>  <TGI>
11.8 µM

$$$$
>  <molecule>
C/C(=N\NC(=O)c1ccncc1)c1ccccc1O

>  <TGI>
21.4 µM

$$$$
>  <molecule>
CN(C)C(=O)c1cc2cnc(Nc3ccc(N4CCNCC4)cn3)nc2n1C1CCCC1

>  <TGI>
> 100 µM

$$$$
>  <molecule>
Cc1ccc(C)c(C(=O)CC2OC(O)C(Cl)C2Cl)c1 (stereo not drawn)

>  <TGI>
84.4 µM

$$$$
>  <molecule>
COc1cc(O)c2c(=O)c(O)c(-c3ccc(O)c(O)c3)oc2c1

>  <TGI>
15.6 µM

$$$$
>  <molecule>
OCCn1c(-c2ccncc2)c(-c2ccc(F)cc2)c2ncccc21

>  <TGI>
> 25 µM

$$$$
>  <molecule>
CCCCN1/C(=N/Nc2n[nH]c(=O)c3ccccc23)SCC1c1ccc(Cl)cc1 (stereo not drawn)

>  <TGI>
77.4 µM

$$$$
>  <molecule>
Nc1c(/C=C/c2cc3cc(C4=NCCN4)ccc3o2)[nH]c2cc(C3=NCCN3)ccc12

>  <TGI>
> 100 µM

$$$$
>  <molecule>
NS(=O)(=O)c1cc2c(cc1Cl)NC(C(=O)NNC(=O)c1ccncc1)=NS2(=O)=O

>  <TGI>
> 100 µM

$$$$
>  <molecule>
Cc1ccc(C(=O)C2CC3(CCC2(O)c2ccc(C)cc2)CC(=O)Nc2ccccc2C3=O)cc1 (stereo not drawn)

>  <TGI>
> 100 µM

$$$$
>  <molecule>
CC(=O)OC/C=C/Cn1nc(Br)c(=O)[nH]c1=O

>  <TGI>
> 100 µM

$$$$
>  <molecule>
CO/C(N)=C(\C#N)N=Cc1cccs1

>  <TGI>
> 100 µM

$$$$
>  <molecule>
CCc1nc2cc(F)ccc2[nH]c1=O

>  <TGI>
> 100 µM

$$$$
>  <molecule>
C/C(=C\CNc1ncnc2c1ncn2CCC#N)CO

>  <TGI>
> 100 µM

$$$$

---

System: MDA-MB-231 breast
protocol description: NCI tumour cell line growth inhibition, 48 h; in the data active = GI50 below about 0.43 µM; inactive = the rest
Outcomes: YES = active, NO = inactive

>  <compound>
CS(=O)(=O)Nc1ccc(Nc2c3ccccc3nc3cc(Cl)ccc23)cc1

>  <group label>
NO

$$$$
>  <compound>
COc1cc(-c2nn(-c3cccc(NC(=O)c4cccc(C(F)(F)F)c4)c3)cc2-c2ccncc2)ccc1Cl

>  <group label>
NO

$$$$
>  <compound>
C/C(=N\NC(=O)c1ccncc1)c1ccccc1O

>  <group label>
NO

$$$$
>  <compound>
COc1cc2c(cc1OCCCN1CCN(CCCn3c4ccccc4c4ccccc43)CC1)N=C[C@@H]1CCCN1C2=O

>  <group label>
YES

$$$$
>  <compound>
CN1CCN(Cc2ccc(NC(=O)c3cncc(C#Cc4cnc5cccnn45)c3)cc2C(F)(F)F)CC1

>  <group label>
NO

$$$$
>  <compound>
COC(=O)C(NC(=O)c1ccccc1)c1ccc(OC)c(I)c1 (stereo not given)

>  <group label>
NO

$$$$
>  <compound>
O=C(COC(=O)[C@H](C[Se][Se]C[C@H](NC(=O)c1ccc(Br)cc1F)C(=O)OCC(=O)c1ccc(F)cc1)NC(=O)c1ccc(Br)cc1F)c1ccc(F)cc1

>  <group label>
NO

$$$$
>  <compound>
CC(=O)Nc1ccc(C(=O)COc2cccc(/C=C3\CCc4ccccc4C3=O)c2)cc1

>  <group label>
NO

$$$$
>  <compound>
CCC(=C(c1ccc(OCCN(CC)CC)cc1)c1ccc(OCCN(CC)CC)cc1)c1ccc(Cl)cc1

>  <group label>
NO

$$$$
>  <compound>
N#Cc1c(N)nc(N2CCOCC2)c(C#N)c1-c1ccc(Cl)cc1Cl

>  <group label>
NO

$$$$
>  <compound>
Clc1ccc(N=CNc2ccc(-c3nc4ccccc4[nH]3)cc2)cc1

>  <group label>
NO

$$$$
>  <compound>
CN(C)C(=O)c1cc2cnc(Nc3ccc(N4CCNCC4)cn3)nc2n1C1CCCC1

>  <group label>
NO

$$$$
>  <compound>
Nc1ccc(N)c2c1C(=O)c1cccc([N+](=O)[O-])c1C2=O

>  <group label>
NO

$$$$
>  <compound>
COc1ccc(S(=O)(=O)NCCCNc2nccc(-c3c(-c4ccc(F)cc4)nc4sccn34)n2)cc1

>  <group label>
NO

$$$$
>  <compound>
ClCc1ccc(Cn2cnc3nc(Cl)nc(Cl)c32)cc1

>  <group label>
NO

$$$$

---

Test system: RXF 393 renal
protocol description: NCI tumour cell line growth inhibition, 48 h
reported endpoint: GI50

>  <compound>
Clc1ccc(N=CNc2ccc(-c3nc4ccccc4[nH]3)cc2)cc1

>  <experimental result>
> 100000 nM

$$$$
>  <compound>
COc1ccc(Cl)cc1Nc1nc(C(F)(F)F)ccc1C(=O)N/N=C/c1ccc(Cl)cc1

>  <experimental result>
4560 nM

$$$$
>  <compound>
ClCc1ccc(Cn2cnc3nc(Cl)nc(Cl)c32)cc1

>  <experimental result>
1300 nM

$$$$
>  <compound>
CCn1c(SC)nnc1-c1cc2c([nH]c3ccccc32)c(-c2cccc(O)c2)n1

>  <experimental result>
1140 nM

$$$$
>  <compound>
COc1ccc(S(=O)(=O)NCCCNc2nccc(-c3c(-c4ccc(F)cc4)nc4sccn34)n2)cc1

>  <experimental result>
3360 nM

$$$$
>  <compound>
COC(=O)C(NC(=O)c1ccccc1)c1ccc(OC)c(I)c1 (configuration not stated)

>  <experimental result>
> 100000 nM

$$$$
>  <compound>
CS(=O)(=O)Nc1ccc(Nc2c3ccccc3nc3cc(Cl)ccc23)cc1

>  <experimental result>
1770 nM

$$$$
>  <compound>
O=C(NCc1cccnc1)c1ccc([N+](=O)[O-])o1

>  <experimental result>
1150 nM

$$$$
>  <compound>
N#Cc1c(N/N=C/c2c(Cl)cccc2Cl)nc(N)nc1N1CCCC1

>  <experimental result>
2340 nM

$$$$
>  <compound>
OCCn1c(-c2ccncc2)c(-c2ccc(F)cc2)c2ncccc21

>  <experimental result>
> 25000 nM

$$$$
>  <compound>
COc1cccc2c(Nc3ccc(C(=O)NCCN4CCNCC4)cc3)cc(-c3ccccc3)nc12

>  <experimental result>
> 100000 nM

$$$$
>  <compound>
CC(C)=NO.CC(C)=NO.CC(C)=NO.CC(C)=NO.[Ti]

>  <experimental result>
> 100000 nM

$$$$
>  <compound>
c1csc(-c2[nH]nc3c2CCc2ccccc2-3)c1

>  <experimental result>
16900 nM

$$$$
>  <compound>
O=C1C(=O)c2c(ccc3ccccc23)-c2ccccc21

>  <experimental result>
1680 nM

$$$$
>  <compound>
O=C(c1ccccc1)c1ccc(N2C(=O)C3C4c5ccccc5C(/C=C/C(=O)c5ccccn5)(c5ccccc54)C3C2=O)cc1 (configuration not stated)

>  <experimental result>
1560 nM

$$$$
>  <compound>
Oc1ccc(/C=N/Nc2nnc(N/N=C/c3ccc(O)cc3O)c3ccccc23)c(O)c1

>  <experimental result>
519 nM

$$$$
>  <compound>
CCc1c[nH]c2ncnc(N3CC[C@](N)(CNC(=O)c4ccc(F)cc4F)C3)c12

>  <experimental result>
244 nM

$$$$

---

System: HCT-116 colon
protocol description: NCI tumour cell line growth inhibition, 48 h

>  <compound>
O=C(O)C12C3C4C1C1C2C3C41I (stereo not given)

>  <TGI>
> 100 µM

$$$$
>  <compound>
CCCCCNC(=O)OC1CCn2c1nc1c2C(=O)C(C)=C(N2CC2)C1=O (stereo not given)

>  <TGI>
4.33 µM

$$$$
>  <compound>
CO[C@@H](c1ccccc1)[C@H](O)[C@@](O)(c1ccccc1)P(=O)(OC)OC

>  <TGI>
> 100 µM

$$$$
>  <compound>
COc1ccc(NC(=S)Nc2cccc(C)n2)cc1

>  <TGI>
> 100 µM

$$$$
>  <compound>
CCCCCCCCCCCC1=C(O)C(=O)C=C(O)C1=O

>  <TGI>
30.1 µM

$$$$
>  <compound>
CC1=CC(=O)N2[C@H](OC[C@@H]2C(C)C)O1

>  <TGI>
> 100 µM

$$$$
>  <compound>
COc1cc(-c2nn(-c3cccc(NC(=O)c4cccc(C(F)(F)F)c4)c3)cc2-c2ccncc2)ccc1Cl

>  <TGI>
> 50 µM

$$$$
>  <compound>
Nn1c(=S)[nH]nc(/C=C/c2c(O)ccc3ccccc23)c1=O

>  <TGI>
12.5 µM

$$$$
>  <compound>
Cc1nnc(N)s/c1=N/O

>  <TGI>
> 100 µM

$$$$
>  <compound>
CC(=O)Oc1c(OC(C)C)cc(=O)n2ccsc12

>  <TGI>
> 100 µM

$$$$
